# Tested on: MCF7
# ASSAY SUMMARY: Cytotoxicity against human MCF7 cells assessed as cell viability at 25 uM after 3 days by MTS assay
# Format: functional
# MEASUREMENT CONTEXT: MCF7, 72 h, read-out: Activity
So basically: is viability at 25 µM under 30%? Then TRUE. Not under? Then FALSE.

COMPOUND SMILES	CLASS NAME
C[C@@H]1O[C@@H](OCC#Cc2c(-c3ccccc3)oc3ccccc23)CC[C@@H]1N	TRUE

input: A record lists Cc1ccc(CN[C@H]2CC[C@H](OCC#Cc3c(-c4ccccc4)oc4ccccc34)O[C@H]2C)cc1 . Is its viability at 25 µM below 30%?
output: FALSE

input: hey, is viability at 25 µM for C[C@@H]1O[C@@H](OCC#Cc2c(-c3ccccc3)oc3ccccc23)CC[C@@H]1NCc1ccccn1 lower than 30% or not?
output: TRUE

input: Does the reported viability at 25 µM of C[C@@H]1O[C@@H](OCC#Cc2c(-c3ccccc3)oc3ccccc23)CC[C@@H]1NCc1ccco1 stay below 30%?
output: FALSE

input: A record lists C[C@@H]1O[C@@H](OCC#Cc2c(-c3ccccc3)oc3ccccc23)CC[C@@H]1NCc1ccccc1 . Is its viability at 25 µM below 30%?
output: FALSE

input: Hi there! Is viability at 25 µM for C[C@@H]1O[C@@H](OCC#Cc2c(-c3ccccc3)oc3ccccc23)CC[C@@H]1NCc1ccc[nH]1 below 30%, do you know?
output: TRUE

input: Quick check: does C[C@@H]1O[C@@H](OCC#Cc2c(-c3ccccc3)oc3ccccc23)CC[C@@H]1NCc1ccc([N+](=O)[O-])cc1 have viability at 25 µM under 30%?
output: FALSE

input: In the record for C[C@@H]1O[C@@H](OCC#Cc2c(-c3ccccc3)oc3ccccc23)CC[C@@H]1NCc1ccc(O)cc1 , is viability at 25 µM less than 30%?
output: TRUE

input: For COc1ccc(CN[C@H]2CC[C@H](OCC#Cc3c(-c4ccccc4)oc4ccccc34)O[C@H]2C)cc1 , is the recorded viability at 25 µM below the cut-off of 30%?
output: FALSE

---

# Tested on: MCF7
# ASSAY SUMMARY: Cytotoxicity against human MCF7 cells after 3 days by MTS assay
# Assay type: functional, cell-based
# MEASUREMENT CONTEXT: MCF7, 72 h
# maps each entry to its IC50
Numbers only here, please. The scale is µM.

See these solved cases before continuing.
COMPOUND SMILES	EXPERIMENTAL ENDPOINT	VALUE MEASURED
CN[C@H]1CC[C@H](OCC#Cc2c(-c3ccccc3)sc3ccccc23)O[C@H]1C	IC50	7.1
CCN(CC)[C@H]1CC[C@H](OCC#Cc2c(-c3ccccc3)sc3ccccc23)O[C@H]1C	IC50	12
C[C@@H]1O[C@@H](OCC#Cc2c(-c3ccccc3)oc3ccccc23)CC[C@@H]1NCc1ccccn1	IC50	14.3

Kindly review the next compound as well.
IC50 measured on CCCCN[C@H]1CC[C@H](OCC#Cc2c(-c3ccccc3)oc3ccccc23)O[C@H]1C = 20.8

---

# Tested on: MCF7
# ASSAY SUMMARY: Cytotoxicity against human MCF7 cells after 3 days by MTS assay
# Assay type: functional, cell-based
# MEASUREMENT CONTEXT: MCF7, 72 h
EXPERIMENTAL ENDPOINT: IC50 (µM)
// note: answer is a bare numeric in µM

Below: 5 molecules and their reported IC50.
COMPOUND SMILES	RESULT UNIT	IC50
CC(C)N[C@H]1CC[C@H](OCC#Cc2c(-c3ccccc3)oc3ccccc23)O[C@H]1C	µM	12.6
CCCCCCN[C@H]1CC[C@H](OCC#Cc2c(-c3ccccc3)sc3ccccc23)O[C@H]1C	µM	6.8
CCN[C@H]1CC[C@H](OCC#Cc2c(-c3ccccc3)sc3ccccc23)O[C@H]1C	µM	5.9
C[C@@H]1O[C@@H](OCC#Cc2c(-c3ccccc3)sc3ccccc23)CC[C@@H]1N(C)CC#N	µM	7.7
CCN[C@H]1CC[C@H](OCC#Cc2c(-c3ccccc3)oc3ccccc23)O[C@H]1C	µM	9.2

Memo: C[C@@H]1O[C@@H](OCC#Cc2c(-c3ccccc3)sc3ccccc23)CC[C@@H]1NCC#N , reported IC50: 10.5

Sure, the documented IC50 for CCCCN[C@H]1CC[C@H](OCC#Cc2c(-c3ccccc3)sc3ccccc23)O[C@H]1C is 10.2
